Reference source: PubChem BioAssay AID1963445

tested on: MCF7 complex spheroid growth, % test/control; experiment: Anticancer human tumor MCF7 cell line growth inhibition [Asc]; conditions: second compound 0.0316 µM; first compound 0.00316 µM; active compounds read low;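 further: spheroids exposed to compounds for 7 days; 100% = DMSO vehicle control wells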
# viability, T/C per record follows
Hi! Could you send only the number? It should be in %, unit omitted.

INSERT INTO measurements (compound, result_number) VALUES
  ('O=C(c1ccc(F)c(F)c1Nc1ccc(I)cc1F)N1CC(O)([C@@H]2CCCCN2)C1 + Cc1c(S(C)(=O)=O)c(-c2cc(F)cc(N3CCN(c4ccc(NS(=O)(=O)c5ccc(NC(CCN6CCC(C(=O)OCCCP(=O)(O)O)CC6)CSc6ccccc6)c(S(=O)(=O)C(F)(F)F)c5)cc4)CC3)c2)c(-c2ccc(Cl)cc2)n1C(C)C', 101),
  ('NC1CCC(NC2CC2c2ccccc2)CC1 (stereo unspecified) + Cc1c(S(C)(=O)=O)c(-c2cc(F)cc(N3CCN(c4ccc(NS(=O)(=O)c5ccc(NC(CCN6CCC(C(=O)OCCCP(=O)(O)O)CC6)CSc6ccccc6)c(S(=O)(=O)C(F)(F)F)c5)cc4)CC3)c2)c(-c2ccc(Cl)cc2)n1C(C)C', 93.3),
  ('Cn1ncnc1[C@H]1c2n[nH]c(=O)c3cc(F)cc(c23)N[C@@H]1c1ccc(F)cc1 + CNC(C)C(=O)NC1CN(S(=O)(=O)c2cccc(S(=O)(=O)N3CCC4CCC(C(=O)NC(c5ccccc5)c5ccccc5)N4C(=O)C(NC(=O)C(C)NC)C3)c2)CCC2CCC(C(=O)NC(c3ccccc3)c3ccccc3)N2C1=O', 12.2),
  ('O=C(c1ccc(F)c(F)c1Nc1ccc(I)cc1F)N1CC(O)([C@@H]2CCCCN2)C1 + CNC(C)C(=O)NC1CN(S(=O)(=O)c2cccc(S(=O)(=O)N3CCC4CCC(C(=O)NC(c5ccccc5)c5ccccc5)N4C(=O)C(NC(=O)C(C)NC)C3)c2)CCC2CCC(C(=O)NC(c3ccccc3)c3ccccc3)N2C1=O', 14.8),
  ('CNC(C)C(=O)NC1CN(S(=O)(=O)c2cccc(S(=O)(=O)N3CCC4CCC(C(=O)NC(c5ccccc5)c5ccccc5)N4C(=O)C(NC(=O)C(C)NC)C3)c2)CCC2CCC(C(=O)NC(c3ccccc3)c3ccccc3)N2C1=O (stereo unspecified) + Cc1c(S(C)(=O)=O)c(-c2cc(F)cc(N3CCN(c4ccc(NS(=O)(=O)c5ccc(NC(CCN6CCC(C(=O)OCCCP(=O)(O)O)CC6)CSc6ccccc6)c(S(=O)(=O)C(F)(F)F)c5)cc4)CC3)c2)c(-c2ccc(Cl)cc2)n1C(C)C', 73.3);

API: the following record is the query input.
viability, T/C reading for CCN1CCN(Cc2ccc(Nc3ncc(F)c(-c4cc(F)c5nc(C)n(C(C)C)c5c4)n3)nc2)CC1 + Cc1c(S(C)(=O)=O)c(-c2cc(F)cc(N3CCN(c4ccc(NS(=O)(=O)c5ccc(NC(CCN6CCC(C(=O)OCCCP(=O)(O)O)CC6)CSc6ccccc6)c(S(=O)(=O)C(F)(F)F)c5)cc4)CC3)c2)c(-c2ccc(Cl)cc2)n1C(C)C : 101
